Biological target: urokinase-type plasminogen activator (u-PA) (human, UniProt P00749 21-431, limits assumed)
Assay: cell-based or functional assay
acyl = not defined here
REPORTED ENDPOINT: u-PA:t-PA Selectivity
One number for each entry.

Below, each entry is followed by its recorded u-PA:t-PA Selectivity result.
acyl-SGRSA-NH2 (reading uncertain; also: acylated at the amino terminus (acyl group not given here)) [peptide SGRSA]    20
LGQRGRSANAILE [peptide LGQRGRSANAILE]    0.005
LGGRGRSANAILE [peptide LGGRGRSANAILE]    0.019
KKSPGRVVGGSVAH [peptide (I), native cleavage sequence from plasminogen]    3

Value sought for every listed binder: u-PA:t-PA Selectivity.
1. acyl-SGKS-NH2 (reading uncertain; also: acylated at the amino terminus (acyl group not given here)) [peptide SGKS]
2. LGGSGRSATRDLE [peptide LGGSGRSATRDLE]

Key:
1: 23; 2: 16

Source: patent US20030186329A1
